assayProcedure: OS2 (OPTISAFE2), OPTISAFE formulation with antioxidants
particulars: Table 7A; majority prediction of the triplicate assays
readoutType: OS2 Cons

A selection of reference data follows.
CCCOCC(C)O (stereo not shown) [Propasol solvent P]; 2
O=P(O)(OCc1ccccc1)OCc1ccccc1 [Dibenzyl phosphate]; 1
O=C(O)CCSSCCC(=O)O [3,3-Dithiodipropionic acid]; 1

Now take the following compound into account.
Name the reported OS2 Cons value associated with the compound O=C=Nc1ccc(Cl)c(Cl)c1 [3,4-Dichlorophenyl isocyanate]
1

---

particulars: pH 6.36
For each of the compounds below, state its 0S2 R1.

Quick request: 0S2 R1 for each listed item, please.
1. C=C1C2CCC(C2)C1(C)C (stereo not shown)
2. COC(=O)CC#N [Methyl cyanoacetate]
3. CCCC(C)CO (stereo not shown)
4. CC(C)CO

1: 2; 2: 1; 3: 2; 4: 1
